TARGET ENTITY: UniProtKB C7C422
EXPERIMENT DESCRIPTION: biochemical
Format: biochemical
TEST SETTINGS: CCF2-FA substrate, 2 hours at 25° C; read-out: NDM-1 IC50
Items are presented alongside their recorded IC50.
The reply should contain only the number, in pM.

Previously resolved entries follow.
Nc1nc2c(-c3ccc(S(=O)(=O)C[C@@H](N)CO)c(S(N)(=O)=O)c3-c3nn[nH]n3)cccc2[nH]1 ... 113
NCCS(=O)(=O)c1ccc(-c2ccc3[nH]c(=O)oc3c2)c(-c2nnn[nH]2)c1S(N)(=O)=O.O=C(O)C(F)(F)F [Example 155, 2,2,2-trifluoroacetate] ... 814
NC1CCC(c2ccc(S(=O)(=O)C3CCNCC3)c(S(N)(=O)=O)c2-c2nnn[nH]2)CC1 (stereo not shown) ... 20300

Query: Form field: reported IC50 of NCCS(=O)(=O)c1ccc(-c2cncc3ccccc23)c(-c2nnn[nH]2)c1S(N)(=O)=O.O=C(O)C(F)(F)F [Example 148, 2,2,2-trifluoroacetate]
Response: 608

Query: Form field: reported IC50 of Nc1ccc2cccc(-c3ccc(S(=O)(=O)C4CNC4)c(S(N)(=O)=O)c3-c3nn[nH]n3)c2n1
Response: 104

Query: Form field: reported IC50 of CC(=O)N1CC(S(=O)(=O)c2ccc(-c3cccc4nc(N)[nH]c34)c(-c3nn[nH]n3)c2S(N)(=O)=O)C1
Response: 178

Query: Form field: reported IC50 of NCc1nc2c(-c3ccc(S(=O)(=O)C[C@@H](O)CN)c(S(N)(=O)=O)c3-c3nn[nH]n3)cccc2[nH]1
Response: 973

---

TARGET ENTITY: NDM-1 (Klebsiella pneumoniae, UniProt C7C422)
Sequence (C7C422 whole entry, looked up, species assumed): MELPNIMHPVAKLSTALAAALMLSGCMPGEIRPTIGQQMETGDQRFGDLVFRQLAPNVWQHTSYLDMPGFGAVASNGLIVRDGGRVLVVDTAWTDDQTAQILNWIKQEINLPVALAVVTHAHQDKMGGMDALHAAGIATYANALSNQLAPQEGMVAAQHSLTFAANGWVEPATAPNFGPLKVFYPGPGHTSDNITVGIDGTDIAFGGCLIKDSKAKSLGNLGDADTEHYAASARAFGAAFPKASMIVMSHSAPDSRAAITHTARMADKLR
EXPERIMENT DESCRIPTION: biochemical
Assay type: biochemical
TEST SETTINGS: CCF2-FA substrate, 2 hours at 25° C; read-out: NDM-1 IC50
pIC50: −log10 of the molar value.
Entry flag: met if pIC50 reaches 9; not met if it does not.

Query: # check: pIC50 of Cn1c(N)nc2c(-c3ccc(S(=O)(=O)C[C@@H](O)CN)c(S(N)(=O)=O)c3-c3nn[nH]n3)cccc21 [Example 363] is greater than or equal to 9
Response: met

Query: # check: pIC50 of CCOC(=O)N1CC(S(=O)(=O)c2ccc(-c3cccc4[nH]c(N)nc34)c(-c3nn[nH]n3)c2S(N)(=O)=O)C1 [Example 57] is greater than or equal to 9
Response: met

Query: # check: pIC50 of NCCS(=O)(=O)c1ccc(-c2cnc3cccnc3c2)c(-c2nnn[nH]2)c1S(N)(=O)=O.O=C(O)C(F)(F)F [Example 134, 2,2,2-trifluoroacetate] is greater than or equal to 9
Response: not met

Query: # check: pIC50 of Nc1nc2cccc(-c3ccc(S(=O)(=O)[C@H]4C[C@@H](N)C4)c(S(N)(=O)=O)c3-c3nn[nH]n3)c2[nH]1 [Example 176] is greater than or equal to 9
Response: met

Query: # check: pIC50 of NCCS(=O)(=O)c1ccc(-c2cccc3nc(N)nn23)c(-c2nn[nH]n2)c1S(N)(=O)=O [Example 225] is greater than or equal to 9
Response: met

---

Tested on: P. aeruginosa expressing IMP-1, efflux+ (MB9798)
Assay type: cell-based, Pseudomonas aeruginosa
TEST SETTINGS: ratio MITC95 PA_9798/MITC95 PA_9799
READOUT NAME: Efflux ratio
Just the number, please.

Query: Form field: reported Efflux ratio of Cc1nnc2ccc(-c3ccc(S(=O)(=O)CCN)c(S(N)(=O)=O)c3-c3nnn[nH]3)cn12.O=C(O)C(F)(F)F
Response: 64.00

Query: Form field: reported Efflux ratio of Nc1nc2cc(F)cc(-c3ccc(S(=O)(=O)C4CNC4)c(S(N)(=O)=O)c3-c3nnn[nH]3)c2[nH]1 [Example 296]
Response: 1.00

Query: Form field: reported Efflux ratio of Nc1n[nH]c2cccc(-c3ccc(S(=O)(=O)C4CNC4)c(S(N)(=O)=O)c3-c3nnn[nH]3)c12
Response: 2.00

Query: Form field: reported Efflux ratio of COc1ccc(Cc2cc3c(-c4ccc(S(=O)(=O)C5CNC5)c(S(N)(=O)=O)c4-c4nnn[nH]4)cccc3[nH]2)cc1
Response: 8.00

Query: Form field: reported Efflux ratio of Nc1nc2cccc(-c3ccc(S(=O)(=O)[C@H]4CC[C@H](N)CC4)c(S(N)(=O)=O)c3-c3nn[nH]n3)c2[nH]1
Response: 1.00

Query: Form field: reported Efflux ratio of Nc1nc2c(-c3ccc(S(=O)(=O)C4CNC4)c(S(N)(=O)=O)c3-c3nn[nH]n3)cccc2[nH]1
Response: 0.95

Query: Form field: reported Efflux ratio of NCCS(=O)(=O)c1ccc(-c2cccc3[nH]c(C(F)(F)F)nc23)c(-c2nn[nH]n2)c1S(N)(=O)=O
Response: 4.00

---

Items are presented alongside their recorded pIC50.
TARGET ENTITY: NDM-1 (Klebsiella pneumoniae, UniProt C7C422)
EXPERIMENT DESCRIPTION: biochemical
Assay type: biochemical
TEST SETTINGS: CCF2-FA substrate, 2 hours at 25° C; read-out: NDM-1 IC50
API: returns pIC50 as number; meaning -log10 of concentration in mol/L.

NC[C@@H](O)CS(=O)(=O)c1ccc(-c2ccc(N)nc2)c(-c2nn[nH]n2)c1S(N)(=O)=O ... 9.10
COc1ccc(-c2ccc(S(=O)(=O)CCN)c(S(N)(=O)=O)c2-c2nnn[nH]2)c2[nH]c(C(F)(F)F)nc12.O=C(O)C(F)(F)F [Example 164, 2,2,2-trifluoroacetate] ... 9.83
Nc1ccc(-c2ccc(S(=O)(=O)C3CNC3)c(S(N)(=O)=O)c2-c2nn[nH]n2)cn1 ... 9.27
NC(=O)c1ccc(-c2ccc(S(=O)(=O)C3CNC3)c(S(N)(=O)=O)c2-c2nnn[nH]2)c(N)n1 ... 9.43
CCn1c(N)nc2c(-c3ccc(S(=O)(=O)C4CNC4)c(S(N)(=O)=O)c3-c3nn[nH]n3)cccc21 ... 9.93
CS(=O)(=O)c1ccc(-c2cccc3sc(N)nc23)c(-c2nn[nH]n2)c1S(N)(=O)=O ... 9.89
Nc1nccc(-c2ccc(S(=O)(=O)C3CNC3)c(S(N)(=O)=O)c2-c2nn[nH]n2)c1N ... 9.21
NCCS(=O)(=O)c1ccc(-c2cccc3[nH]cnc23)c(-c2nn[nH]n2)c1S(N)(=O)=O ... 9.62
NS(=O)(=O)c1cccc(-c2ccc(S(=O)(=O)C3CNC3)c(S(N)(=O)=O)c2-c2nn[nH]n2)c1 ... 8.70
Nc1nc2cccc(-c3ccc(S(=O)(=O)C4CNC4)c(S(N)(=O)=O)c3-c3nn[nH]n3)c2s1 ... 10.54

Query: Form field: reported pIC50 of NS(=O)(=O)c1c(SC2CCNCC2)ccc(-c2ccc(C3CCNCC3)cc2)c1-c1nnn[nH]1
Response: 7.82

Query: Form field: reported pIC50 of NCCS(=O)(=O)c1ccc(-c2ccnc(N)c2)c(-c2nnn[nH]2)c1S(N)(=O)=O.O=C(O)C(F)(F)F [Example 141, 2,2,2-trifluoroacetate]
Response: 8.36

Query: Form field: reported pIC50 of NCCS(=O)(=O)c1ccc(-c2cccc3[nH]c(=O)[nH]c23)c(-c2nnn[nH]2)c1S(N)(=O)=O
Response: 9.60

Query: Form field: reported pIC50 of NCCS(=O)(=O)c1ccc(-c2cccc(-n3cccn3)c2)c(-c2nnn[nH]2)c1S(N)(=O)=O.O=C(O)C(F)(F)F [Example 156, 2,2,2-trifluoroacetate]
Response: 8.97

---

TARGET ENTITY: NDM-1 (Klebsiella pneumoniae)
EXPERIMENT DESCRIPTION: biochemical
Format: biochemical
TEST SETTINGS: CCF2-FA substrate, 2 hours at 25° C; read-out: NDM-1 IC50
READOUT NAME: pIC50
API: returns pIC50 as number; meaning -log10 of concentration in mol/L.

CC(N)CS(=O)(=O)c1ccc(-c2cccc3sc(N)nc23)c(-c2nn[nH]n2)c1S(N)(=O)=O (stereo not shown) ... 9.93
Cn1c(N)nc2c(-c3ccc(S(=O)(=O)CCCN)c(S(N)(=O)=O)c3-c3nn[nH]n3)cccc21 ... 9.58
N[C@@H](CO)CS(=O)(=O)c1ccc(-c2cccc3[nH]cnc23)c(-c2nn[nH]n2)c1S(N)(=O)=O ... 9.79
CN1CC(S(=O)(=O)c2ccc(-c3cccc4[nH]c(N)nc34)c(-c3nn[nH]n3)c2S(N)(=O)=O)C1 ... 9.65
NS(=O)(=O)c1c(S(=O)(=O)C2CNC2)ccc(-c2ccc3nccnc3c2)c1-c1nnn[nH]1.O=C(O)C(F)(F)F [Example 117, 2,2,2-trifluoroacetate] ... 9.03
NS(=O)(=O)c1c(S(=O)(=O)C2CCNCC2)ccc([C@H]2CC[C@@H](N)CC2)c1-c1nnn[nH]1 ... 7.69

// next item, pIC50 requested
Query: Form field: reported pIC50 of NS(=O)(=O)c1c(S(=O)(=O)C2CNC2)ccc(-c2ccc(C3CCNCC3)cc2)c1-c1nn[nH]n1
Response: 9.51
